Each recorded value in this set is attributed to paper PMC9172283.

test: MTT cell viability assay in Vero E6 cells; format: cell-based; conditions: African green monkey
Exercise: state measured CC50 at 72 h for each of the compounds provided.

Record CC(C)[C@H](NC(=O)c1ccccc1NC(=O)c1ccc(O)cc1)C(=O)N[C@H](CO)C(C)C [Compound 35] . Reported CC50 at 72 h: > 250 µM

Record NC(=O)c1c(NC(=O)c2cnn3c(C(F)F)cc(-c4ccccc4)nc23)sc2c1CCCC2 [Compound 28] . Reported CC50 at 72 h: > 250 µM

Record CCC(C)NC(=O)c1ccccc1NC(=O)c1cccc(S(=O)(=O)Nc2ccccc2)c1 (stereo not shown) [Compound 29] . Reported CC50 at 72 h: > 500 µM

Record COc1ccc(NC2=NC(=O)CC(C(=O)NCc3ccccc3)N2)cc1 (stereo not shown) [Compound 13] . Reported CC50 at 72 h: > 500 µM

Record COc1ccc(C(=O)Nc2ccccc2C(=O)N[C@H](C(=O)NC2CCCCC2)C(C)C)cc1 [Compound 33] . Reported CC50 at 72 h: > 250 µM

Record O=C(CCC(=O)NNC(=O)C(c1ccccc1)c1ccccc1)NCc1ccccc1 [Compound 10] . Reported CC50 at 72 h: > 500 µM

Record COc1ccc(C(=O)CN(C(=O)c2ccc(Cl)cc2)N2C(=O)CCC2=O)cc1 [Compound 20] . Reported CC50 at 72 h: > 500 µM
